Biological target: T1, human TLR4/MD-2 receptor complex expressed on transfected cells (human, UniProt O00206 24-839; Q9Y6Y9 19-160)
T1 construct: Tags differ by cell line: CHO-K1: N-terminal c-myc on TLR4, C-terminal c-Myc and Protein C on MD-2; also called TLR4/MD-2 complex; hTLR4/MD-2
T1 sequence (O00206 24-839 limits assumed, chain 1 of 2): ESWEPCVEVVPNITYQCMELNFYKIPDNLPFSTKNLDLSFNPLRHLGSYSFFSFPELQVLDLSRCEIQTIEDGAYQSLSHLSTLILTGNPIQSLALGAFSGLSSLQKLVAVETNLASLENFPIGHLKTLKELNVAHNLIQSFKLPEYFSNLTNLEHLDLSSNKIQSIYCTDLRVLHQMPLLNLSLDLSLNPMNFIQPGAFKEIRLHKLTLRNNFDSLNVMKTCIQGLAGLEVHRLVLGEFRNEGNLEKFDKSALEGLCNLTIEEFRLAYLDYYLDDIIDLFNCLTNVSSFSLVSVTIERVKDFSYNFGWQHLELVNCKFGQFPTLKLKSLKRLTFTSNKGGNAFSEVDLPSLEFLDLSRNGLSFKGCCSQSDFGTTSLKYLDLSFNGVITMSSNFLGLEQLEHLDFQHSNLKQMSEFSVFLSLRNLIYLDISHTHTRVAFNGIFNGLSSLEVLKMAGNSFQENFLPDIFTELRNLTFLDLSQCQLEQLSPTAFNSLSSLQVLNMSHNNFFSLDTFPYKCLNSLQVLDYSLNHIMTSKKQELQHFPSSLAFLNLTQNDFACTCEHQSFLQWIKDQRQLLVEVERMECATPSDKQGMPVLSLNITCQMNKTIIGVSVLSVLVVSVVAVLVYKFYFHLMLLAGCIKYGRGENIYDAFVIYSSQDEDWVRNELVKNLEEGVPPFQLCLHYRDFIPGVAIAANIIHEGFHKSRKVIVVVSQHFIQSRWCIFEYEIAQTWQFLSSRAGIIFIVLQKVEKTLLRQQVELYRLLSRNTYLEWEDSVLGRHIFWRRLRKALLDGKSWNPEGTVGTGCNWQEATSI
T1 sequence (Q9Y6Y9 19-160 R56G limits assumed, chain 2 of 2): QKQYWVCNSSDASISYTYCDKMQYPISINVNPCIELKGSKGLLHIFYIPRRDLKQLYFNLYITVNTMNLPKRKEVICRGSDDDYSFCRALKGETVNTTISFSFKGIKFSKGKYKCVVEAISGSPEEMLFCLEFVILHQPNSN
Assay: flow cytometry, TLR4/MD-2 transfected CHO cells
REPORTED METRIC: binding result

- BINDER: "hu15C1 4-28 QC 48/A26 variant (antibody, V domains shown, also called 15C1 4-28° C.48/A26) VH: QVQLQESGPGLVKPSDTLSLTCAVSGYSITGGYSWHWIRQPPGKGLEWIGYIHYSGYTDFNPSLKTRITISRDTSKNQFSLKLSSVTAVDTAVYYCARKDPSDGFPYWGQGTLVTVSS VL: EIVLTQSPDFQSVTPKEKVTITCRASQSISDHLHWYQQKPDQSPKLLIKYASHAISGVPSRFSGSGSGTDFTLTINSLEAEDAATYYCQNGHSFPLTFGGGTKVEIK"
  RESULT: "binds"
- BINDER: "chimeric 18H10 MAb (antibody, V domains shown, also called 18H10chim; 18H10 chimeric antibody) VH: QVQLQQSGADLVRPGALVKLSCTASGFNIKDSYIHWVKKRPEWGLEWIGWTDPENVNSIYDPRFQGKASITADTSSNTAFLQLTSLTSEDTAVYYCARGYNGVYYAMDYWGQGTTVTVSS VL: QIVLTQSPSIMSASLGEEITLTCSASSSVIYMHWYQQKSGTSPKLLIYRTYNLASGVPSRFSGSGSGTFYSLTISSVEAEDAADYYCHQWSSFPYTFGGGTKLEIKR"
  RESULT: "binds"
- BINDER: "hu15C1 4-28 QC 69/A26 variant (antibody, V domains shown, also called 15C1 4-28° C.69/A26) VH: QVQLQESGPGLVKPSDTLSLTCAVSGYSITGGYSWHWIRQPPGKGLEWMGYIHYSGYTDFNPSLKTRITMSRDTSKNQFSLKLSSVTAVDTAVYYCARKDPSDGFPYWGQGTLVTVSS VL: EIVLTQSPDFQSVTPKEKVTITCRASQSISDHLHWYQQKPDQSPKLLIKYASHAISGVPSRFSGSGSGTDFTLTINSLEAEDAATYYCQNGHSFPLTFGGGTKVEIK"
  RESULT: "binds"

src = patent US20120148593A1
